// IC50 lookup, one value per entry
# target_under_test: Cholecystokinin receptor type A (Rattus norvegicus, UniProt P30551)
# Sequence (P30551 whole entry): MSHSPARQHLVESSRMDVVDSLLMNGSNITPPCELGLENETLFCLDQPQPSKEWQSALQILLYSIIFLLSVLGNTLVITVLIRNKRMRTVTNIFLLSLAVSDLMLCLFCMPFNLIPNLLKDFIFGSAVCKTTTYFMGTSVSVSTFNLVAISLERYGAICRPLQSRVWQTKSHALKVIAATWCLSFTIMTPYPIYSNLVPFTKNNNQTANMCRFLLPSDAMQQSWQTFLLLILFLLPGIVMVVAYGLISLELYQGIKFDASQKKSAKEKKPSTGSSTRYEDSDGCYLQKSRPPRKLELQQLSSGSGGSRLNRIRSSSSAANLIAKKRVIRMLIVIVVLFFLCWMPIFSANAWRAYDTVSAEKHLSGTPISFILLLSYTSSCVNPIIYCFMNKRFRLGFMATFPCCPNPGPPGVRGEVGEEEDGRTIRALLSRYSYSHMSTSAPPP
# protocol: Displacement of [125]I-CCK-8 from CCK-A receptor in rat pancreatic membrane after 2 hrs by gamma counting
Record the value in nM, omitting the unit from your answer.

Worked cases, IC50 given:
>  <compound>
CC(C)(C)N1C(=O)C=C(Cl)C1(O)c1ccccc1 (stereo not given)

>  <unit_of_measure>
nM

>  <IC50>
120

$$$$
>  <compound>
CC(C)CN1C(=O)C=C(Cl)C1(O)c1ccc(F)cc1 (stereo not given)

>  <unit_of_measure>
nM

>  <IC50>
12

$$$$
>  <compound>
CCCCCCN1C(=O)C=C(Cl)C1(O)c1ccccc1 (stereo not given)

>  <unit_of_measure>
nM

>  <IC50>
4500

$$$$

Report its IC50 with Cholecystokinin receptor type A (Rattus norvegicus, UniProt P30551) as the test system: CC(C)N1C(=O)C=C(Cl)C1(O)c1ccc(Cl)cc1 (stereo not given)
300

Report its IC50 with Cholecystokinin receptor type A (Rattus norvegicus, UniProt P30551) as the test system: O=C1C=C(Cl)C(O)(c2ccc(Cl)cc2)N1C1CC1 (stereo not given)
4000
